For each of the compounds below, state its IC50.
- Test system: HTT mRNA
- Procedure summary: RT-qPCR splicing assay, HTT canonical junction (CJ) and alternative junction (AJ) mRNA
- Format: cell-based, human
- Measurement setup: Homo sapiens; canonical junction qPCR panel, Table 5; read-out: HTT (decrease in CJ mRNA levels, IC50)

Reference set, count: 8
INSERT INTO results (compound, test_value) VALUES
  ('Cc1c(O)c(-c2ncc3c(=O)n(C4C[C@H]5C[C@@H]4CN5)ccc3n2)cc2cn(C)nc12 (stereo in doubt) [Compound 1444]', '100 to 1000 nM'),
  ('CCN1CCC(n2ncc3nc(-c4cc(C)c5nc(C)cn5n4)ccc3c2=O)CC1 [Compound 1308]', '< 100 nM'),
  ('Cn1cc2cc(-c3ncc4c(=O)n([C@@H]5CCNC5)ccc4n3)c(O)c(F)c2n1 [Compound 1466]', '100 to 1000 nM'),
  ('Cc1c(O)c(-c2ccc3c(=O)n([C@@H]4CCNC5(CC5)C4)ccc3n2)cc2cn(C)nc12 [Compound 1509]', '100 to 1000 nM'),
  ('Cc1c(O)c(-c2ncc3c(=O)n(C4CCNC(C)(C)C4)ccc3n2)cc2cn(C)nc12 (centres unmarked) [Compound 1442]', '100 to 1000 nM'),
  ('Cc1c(O)c(-c2ccc3c(=O)n(C4CCNC4)cc(C)c3n2)cc2cn(C)nc12 (centres unmarked) [Compound 1467]', '1000 to 10000 nM'),
  ('Cc1cn2nc(-c3ccc4c(=O)n([C@H]5CCN[C@@H](C6CC6)C5)ncc4n3)cc(C)c2n1 [Compound 1550]', '100 to 1000 nM'),
  ('Cc1cn2nc(-c3ccc4c(=O)n([C@@H]5CCN(C)C6(CC6)C5)ncc4n3)cc(C)c2n1 [Compound 1534]', '< 100 nM');

Each compound below has a recorded value; state its IC50.
1. Cc1c(O)c(-c2ccc3c(=O)n([C@H]4CCN[C@@H](C)C4)ccc3n2)cc2cn(C)nc12 [Compound 1520]
2. C[C@H]1C[C@@H](n2ccc3nc(-c4cc(F)c5nn(C)cc5c4)ncc3c2=O)CCN1 [Compound 1503]
3. Cc1c(O)c(-c2ncc3c(=O)n(C45CCC(N(C)C)(CC4)C5)ccc3n2)cc2cn(C)nc12 [Compound 1488]
4. Cc1cn2cc(-c3ccc4c(=O)n(C5CCNC5)ccc4n3)c(O)c(C)c2n1 (centres unmarked) [Compound 1302]
5. Cc1c(O)c(-c2ncc3c(=O)n(C4CCN(C)CC4)ccc3n2)cc2cn(C)nc12 [Compound 1304]
6. Cc1cn2cc(-c3ncc4c(=O)n([C@@H]5C[C@@H](C)N[C@@H](C)C5)ccc4n3)cc(F)c2n1 [Compound 1480]

Reply:
["< 100 nM", "100 to 1000 nM", "100 to 1000 nM", "> 10000 nM", "100 to 1000 nM", "100 to 1000 nM"]

Each compound below has a recorded value; state its IC50.
1. Cc1cn2nc(-c3ccc4c(=O)n(C56CCC(N)(CC5)C6)ccc4n3)cc(C)c2n1 [Compound 1504]
2. Cc1cn2nc(-c3ccc4c(=O)n(C5CC(C)N[C@H](C)C5)ncc4n3)cc(C)c2n1 (stereo in doubt) [Compound 1536]
3. Cn1cc2cc(-c3ccc4c(=O)n([C@@H]5CCNC6(CC6)C5)ccc4n3)c(O)cc2n1 [Compound 1246]
4. Cc1cn2cc(-c3ccc4c(=O)n(C5CCNCC5)ccc4n3)cc(C)c2n1 [Compound 1241]
5. C[C@@H]1C[C@H](n2ccc3nc(-c4cc5cn(C)nc5cc4O)ncc3c2=O)CCN1 [Compound 1474]
6. Cc1c(O)c(-c2ccc3c(=O)n([C@H]4CCNC5(CC5)C4)ccc3n2)cc2cn(C)nc12 [Compound 1508]

Reply:
100 to 1000 nM
100 to 1000 nM
100 to 1000 nM
100 to 1000 nM
1000 to 10000 nM
< 100 nM
